Provenance of the data: paper PMC6506245

- method: Plasma stability assay
- Format: in vitro ADME, BALB/c nude mice
- condition.parameters: BALB/c nude, mouse

| molecule | remaining at 1 h, 2 µM |
| --- | --- |
| CCN(CC)CCOC(=O)c1ccc(N)cc1 [Procaine, reference compound] | 0.02% |

====

- method: PK profiling in mice
- Type: in vivo, BALB/c mice
- condition.parameters: BALB/c, mouse, plasma, sc, 10 mg/kg
Bridge positions count the residues as written; N and C are the ends. Square brackets hold non-standard residues; d marks the D form. Peptide text beside a SMILES is read from it. 2Nal = N[C@@H](Cc1ccc2ccccc2c1)C(=O)O; S5 = C=CCCC[C@](C)(N)C(=O)O

| molecule | bioavailability |
| --- | --- |
| CC[C@H](C)[C@@H]1NC(=O)[C@@](C)(NC(=O)[C@H](CCCNC(=N)N)NC(=O)[C@H](CC(C)C)NC(=O)[C@@H](NC(=O)[C@H](CCC(N)=O)NC(=O)[C@H](CC(C)C)NC(C)=O)[C@@H](C)O)CCCC=CCCC[C@@](C)(C(=O)N[C@@H](CC(C)C)C(=O)N[C@@H](Cc2ccc3ccccc3c2)C(N)=O)NC(=O)[C@H](CCCNC(=N)N)NC(=O)[C@H](CCC(N)=O)NC1=O [hsBCL9CT-24] (Ac-LQTLR[S5]IQR[S5]L[2Nal]-NH2; staple 6-10) | 56% |
